# Test System: alpha-thrombin (active site blocked with fluorescein-PPACK) (Homo sapiens, UniProt P00734;P00734 P00734:328-363,P00734:364-622)
# Experiment: fluorometric titration, 20 mM Tris, 150 mM NaCl, pH 7.4; exosite 1
Readout: Kd (nM)
Your answer should be a plain number; it is taken to be in nM.

Please look up its Kd: GGTTGGTGTGGTTGG (ssDNA, 3'-biotin (biotin TEG)) [ODN 1e]
55
